Please respond with reported pKi for every item in the list.
Biological target: human PDE10A2 (Homo sapiens (Human))
Sequence (Q9Y233 267-1055): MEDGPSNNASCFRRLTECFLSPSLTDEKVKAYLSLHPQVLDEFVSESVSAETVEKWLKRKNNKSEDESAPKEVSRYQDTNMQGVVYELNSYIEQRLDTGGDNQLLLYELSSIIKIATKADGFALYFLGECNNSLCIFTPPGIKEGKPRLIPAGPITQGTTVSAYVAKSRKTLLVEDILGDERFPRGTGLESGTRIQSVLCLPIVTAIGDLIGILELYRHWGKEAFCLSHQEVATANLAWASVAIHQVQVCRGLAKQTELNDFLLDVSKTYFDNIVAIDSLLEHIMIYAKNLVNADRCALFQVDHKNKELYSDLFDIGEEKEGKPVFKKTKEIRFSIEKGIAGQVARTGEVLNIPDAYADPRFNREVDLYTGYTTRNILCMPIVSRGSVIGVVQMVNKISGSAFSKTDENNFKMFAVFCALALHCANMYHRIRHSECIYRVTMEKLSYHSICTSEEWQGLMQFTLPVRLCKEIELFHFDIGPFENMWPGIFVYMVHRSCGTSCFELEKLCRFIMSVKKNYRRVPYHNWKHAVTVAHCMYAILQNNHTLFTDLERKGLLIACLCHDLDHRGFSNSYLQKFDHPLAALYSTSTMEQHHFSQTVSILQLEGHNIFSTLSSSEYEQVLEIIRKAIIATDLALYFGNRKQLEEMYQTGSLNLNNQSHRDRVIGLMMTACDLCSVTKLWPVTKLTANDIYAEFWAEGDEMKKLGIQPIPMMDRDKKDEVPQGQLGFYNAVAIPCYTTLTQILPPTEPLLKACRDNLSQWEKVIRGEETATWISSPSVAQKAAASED
Give bare numbers, as −log10 of the molar value.

compound=COc1cccc([C@H]2C[C@@H]2COc2nc(C)ncc2C2CCC3(CC2)OCCO3)n1 experimental_value=8.79
compound=Cc1ccc([C@H]2C[C@@H]2COc2nc(C)ncc2-c2ccc3nccn3c2)nc1 experimental_value=9.20
compound="Cc1ncc(-c2ccc(C(C)(C)O)nc2)c(OC[C@H]2C[C@@H]2c2ncccc2C)n1 (single isomer, unassigned)" experimental_value=9.29
compound="Cc1ncc(-c2ccncc2)c(OC[C@H]2C[C@@H]2c2ccc3ccccc3n2)n1 (single isomer, unassigned) [Example 27]" experimental_value=9.03
compound=COc1ccc([C@H]2C[C@@H]2COc2nc(C)ncc2-c2ccc(-c3nnnn3C(F)F)cc2)nc1 experimental_value=8.69

Would you mind listing pKi for each of the following compounds?
1. CCc1ccc([C@@H]2C[C@@H]2COc2nc(C)ncc2[C@H]2CC[C@H](O)CC2)nc1
2. Cc1ccc([C@H]2C[C@@H]2COc2nc(C)ncc2-c2ccc(=O)oc2)nc1
3. COc1ccc([C@H]2C[C@@H]2COc2nc(C)ncc2-c2ccc(Br)cc2)nc1
4. Cc1ncc(-c2ccc(C(F)(F)F)nc2)c(OC[C@H]2C[C@@H]2c2ccc3ccccc3n2)n1

1: 9.30; 2: 8.37; 3: 8.30; 4: 9.92

Would you mind listing pKi for each of the following compounds?
1. Cc1ccc([C@H]2C[C@@H]2COc2nc(C)ncc2-c2cccc(OC(C)C)c2)nc1
2. COc1ccc([C@H]2C[C@@H]2COc2nc(C)ncc2-c2ccc(-c3nnn(C)n3)nc2)nc1
3. Cc1ncc(-c2ncccc2F)c(OC[C@H]2C[C@@H]2c2ccc3ccccc3n2)n1

1. 9.52
2. 8.79
3. 9.29

Would you mind listing pKi for each of the following compounds?
1. Cc1ccc([C@H]2C[C@@H]2COc2nc(C)ncc2-c2ccc(C(O)C(F)(F)F)nc2)nc1 (stereo partly shown) [Example 146]
2. COc1cnccc1-c1cnc(C)nc1OC[C@H]1C[C@@H]1c1ccc(C)cn1
3. COc1ccc([C@H]2C[C@@H]2COc2nc(C)ncc2-c2ccc(C(N)=O)nc2)nc1
4. COc1ccc([C@H]2C[C@@H]2COc2nc(C)ncc2-c2cnc(CO)cn2)nc1

[9.60, 9.33, 8.85, 7.92]
